For each of the compounds below, state its growth, % of control at 10 µM.
Tested on: HCT-15
Experiment: Antiproliferative activity against human HCT15 cells at 10 uM by SRB assay
Type: functional
Value expressed in %; do not type the unit.

Reported growth, % of control at 10 µM ( CCCCCCCCCCCCCCCCCC(=O)NCCC[N+](C)(C)C ) = 11.2

Reported growth, % of control at 10 µM ( CCCCCCCCCCCCCC(=O)NCC(C)(C)C[N+](C)(C)C ) = 33.1

Reported growth, % of control at 10 µM ( CCCCCCCCCCCCCCCC(=O)N(C)CC[N+](C)(C)C ) = 15.8

Reported growth, % of control at 10 µM ( CCCCCCCCCCCCCCCCCC(=O)NCC(C)(C)C[N+](C)(C)C ) = 27.5

Reported growth, % of control at 10 µM ( CCCCCCCCCCCCCCCC(=O)NCC(C)(C)C[N+](C)(C)CC ) = 57

Reported growth, % of control at 10 µM ( CCCCCCCCCCCCCC(=O)NCCC[N+](C)(C)C ) = 14.7

Reported growth, % of control at 10 µM ( CCCCCCCCCCCCCCCC(=O)N(C)CC[N+](C)(C)CC ) = 17.8

Reported growth, % of control at 10 µM ( C=CC[N+](CC)(CC)CCN(C)C(=O)CCCCCCCCCCCCC ) = 57.9

Reported growth, % of control at 10 µM ( CCCCCCCCCCCCCCCC(=O)N(C)CCC[N+](C)(C)Cc1ccccc1 ) = 91

Reported growth, % of control at 10 µM ( CCCCCCCCCCCCCC(=O)N(C)CCC[N+](C)(C)Cc1ccccc1 ) = 25.1

Reported growth, % of control at 10 µM ( CCCCCCCCCCCCCCCC(=O)N(C)CC[N+](CC)(CC)CC ) = 3.4
